Tested on: primary mouse cortical neurons
Construct: primary cortical neurons, DIV 10
Test: cells
Set-up: Protection from NMDA-induced (30 uM, 10 min) neuronal death; Hoechst nuclear morphology by automated microscopy
Conditions: Cortical neurone, 20 h, read-out: % inhibition, inhibition of NMDA-induced cell death (protection score), 30 min pre-treatment
Counter-ions that a name gives are not always drawn.
property.measured: inhibition at 10 µM (%)
Give the quantity in %, number only.

Consider the following illustrative entries.
C[C@@H]1CC[C@H]2[C@@H](C)C(O)O[C@@H]3O[C@@]4(C)CC[C@@H]1[C@]32OO4 (some centres unmarked) [Dihydroartemisinin (DHA)] = -4.3
NS(=O)(=O)c1cc2c(cc1Cl)NCNS2(=O)=O [Hydrochlorothiazide] = 8.57
O=c1[nH]c(=O)n([C@H]2C[C@H](O)[C@@H](CO)O2)cc1C(F)(F)F = 9.42

Entry OCCOCCN1CCN(C2=Nc3ccccc3Sc3ccccc32)CC1 [Quetiapine fumarate (Seroquel)] , system primary mouse cortical neurons: what inhibition at 10 µM was measured?
0.552

Entry CCOC(=O)[C@H](CCc1ccccc1)N[C@H]1CCc2ccccc2N(CC(=O)O)C1=O [Benazepril hydrochloride] , system primary mouse cortical neurons: what inhibition at 10 µM was measured?
-11.1

Entry `O=C(O)Cc1ccccc1Nc1c(Cl)cccc1Cl` , system primary mouse cortical neurons: what inhibition at 10 µM was measured?
-4.34

Entry `CC1(C)S[C@@H]2[C@H](NC(=O)[C@H](N)c3ccc(O)cc3)C(=O)N2[C@H]1C(=O)O` , system primary mouse cortical neurons: what inhibition at 10 µM was measured?
-1.15

Entry `CCOC(=O)[C@H](CCc1ccccc1)N[C@@H](C)C(=O)N1[C@H](C(=O)O)C[C@@H]2CCC[C@@H]21` , system primary mouse cortical neurons: what inhibition at 10 µM was measured?
-0.755
